molecular target: PBP3 (Escherichia coli, UniProt P0AD68); construct: using bacterial membranes as the source of PBPs; endogenous in cells; host or cells: E. coli MC4100 membrane preparation; assay: Membrane PBP binding assay, competition with Bocillin FL; set-up: species or system E. coli MC4100
measurement-name: IC50 (µM)
Response body: numeric value in µM, unit text excluded.

Endpoint output: IC50 of N[C@@H](C(=O)N[C@@H]1C(=O)N2C(C(=O)O)=C(Cl)CS[C@H]12)c1ccccc1 [CEF, cefaclor, reference compound] . Value?
15.4

---

tested on: E. coli ATCC 25922; experiment: MIC, broth microdilution (CLSI); assay type: cell-based, Escherichia coli; settings: ID-MHBCA, 1 versus 0 µg/mL supplemental iron (peer review file table)
measurement-name: MIC ratio 1/0
Lab note: jot the number down without any unit.

molecule: O=C(CN(CCCCNC(=O)c1cccc(O)c1O)C(=O)c1cccc(O)c1O)NC(C(=O)NC1C(=O)N2C(C(=O)O)=C(Cl)CCC12)c1ccccc1 (stereo not shown)
MIC ratio 1/0: 8

Endpoint output: MIC ratio 1/0 of N[C@@H](C(=O)N[C@@H]1C(=O)N2C(C(=O)O)=C(Cl)CC[C@H]12)c1ccccc1 [LOR, loracarbef, reference compound] . Value?
2

Endpoint output: MIC ratio 1/0 of N[C@@H](C(=O)N[C@@H]1C(=O)N2C(C(=O)O)=C(Cl)CS[C@H]12)c1ccccc1 [CEF, cefaclor, reference compound] . Value?
1

Endpoint output: MIC ratio 1/0 of CC1(C)SC2C(NC(=O)C(NC(=O)CN(CCCCNC(=O)c3cccc(O)c3O)C(=O)c3cccc(O)c3O)c3ccccc3)C(=O)N2C1C(=O)O (stereo not shown) . Value?
4

---

Listed here: items and their measured MIC.
tested on: K. pneumoniae ATCC 13883; assay: MIC, broth microdilution (CLSI); format: cell-based, Klebsiella pneumoniae; details: Klebsiella pneumoniae, ATCC13883, ID-MHBCA (−), 0 µg/mL supplemental iron

Solved cases (4 shown):
compound: N[C@@H](C(=O)N[C@@H]1C(=O)N2C(C(=O)O)=C(Cl)CS[C@H]12)c1ccccc1 [CEF, cefaclor, reference compound]
experimental-system: K. pneumoniae ATCC 13883
data-value: 3.1 µM
--
compound: O=C(CCC(=O)N(CCCCNC(=O)c1cccc(O)c1O)CCCNC(=O)c1cccc(O)c1O)NCCCCCN(O)C(=O)CCCC(=O)NC(C(=O)NC1C(=O)N2C(C(=O)O)=C(Cl)CSC12)c1ccccc1 (centres unmarked) [MCEF]
experimental-system: K. pneumoniae ATCC 13883
data-value: > 200 µM
--
compound: CC1(C)S[C@@H]2[C@H](NC(=O)[C@H](N)c3ccccc3)C(=O)N2[C@H]1C(=O)O [AMP, ampicillin, reference compound]
experimental-system: K. pneumoniae ATCC 13883
data-value: > 200 µM
--
compound: O=C(CN(CCCCNC(=O)c1cccc(O)c1O)C(=O)c1cccc(O)c1O)NC(C(=O)NC1C(=O)N2C(C(=O)O)=C(Cl)CCC12)c1ccccc1 (centres unmarked) [BLOR, bis-catechol (azotochelin)-loracarbef]
experimental-system: K. pneumoniae ATCC 13883
data-value: 0.1 µM

Endpoint output: MIC of CC1(C)SC2C(NC(=O)C(NC(=O)CN(CCCCNC(=O)c3cccc(O)c3O)C(=O)c3cccc(O)c3O)c3ccccc3)C(=O)N2C1C(=O)O (centres unmarked) [BAMP, bis-catechol (azotochelin)-ampicillin] . Value?
> 200 µM
